System: LOX IMVI melanoma
Test: NCI tumour cell line growth inhibition, 48 h
test.readout: TGI

Examples with their reported TGI follow.
{"columns": ["compound", "test.target", "TGI"],
 "data": [
  ["CC(C)(C)OC(=O)NCC(C#N)CNC(=O)OC(C)(C)C", "LOX IMVI melanoma", "> 100 µM"],
  ["O=C1/C(=C/c2ccc(Cl)cc2)CCCc2ccc(F)cc21", "LOX IMVI melanoma", "31.8 µM"],
  ["COc1cc2cc(Oc3ccc(NC(=O)c4cccc(C(F)(F)F)c4)cc3)c(C)nc2cc1OC", "LOX IMVI melanoma", "> 100 µM"]
]}

Lookup: Please look up its TGI: "CCN(CC)c1ccc(NC(=S)NN(C)C)cc1"
Found: > 10 µM

Lookup: Item under review: "O=C(CCc1nc(=S)[nH][nH]1)NC12CC3CC(CC(C3)C1)C2" . Reported TGI?
Found: > 100 µM

Lookup: Consider the compound "COc1ccc(OC/C(N=Cc2ccncc2)=N/NC(=O)c2ccncc2)cc1" and give its measured TGI.
Found: > 100 µM
